# Tested on: 843782-103-R-J1-PDC complex spheroid viability
# assayText: Anticancer human tumor 843782-103-R-J1-PDC patient-derived lung adenocarcinoma cell line growth inhibition [RAS]; active means viability on the fitted dose curve at most 10% of control; inactive means the rest
# runParameters: second compound 0.1 µM; first compound 3.16 µM
Bench note: report the call from 1.0 = active, 0.0 = inactive

Worked cases, answers included:
CC(=O)OC12COC1CC(O)C1(C)C(=O)C(O)C3=C(C)C(OC(=O)C(O)C(NC(=O)OC(C)(C)C)c4ccccc4)CC(O)(C(OC(=O)c4ccccc4)C21)C3(C)C (stereo not drawn) + C=CC(=O)N1CCN(c2nc(OCC3CCCN3C)nc3c(F)c(-c4nc(N)cc(C)c4C(F)(F)F)c(Cl)cc23)C(C)C1 | 1.0
NC1c2ccccc2OC12CCN(c1cnc3c(N4CCCc5ncccc54)n[nH]c3n1)CC2 (stereo not drawn) + C=CC(=O)N1CCN(c2nc(OCC3CCCN3C)nc3c(F)c(-c4nc(N)cc(C)c4C(F)(F)F)c(Cl)cc23)C(C)C1 | 0.0

Attention now turns to another entry.
Exercise: Which outcome was entered for the compound Cc1nc(N2CCC3(CC2)COC(C)C3N)c(CO)nc1Sc1ccnc(N)c1Cl (stereo not drawn) + C=CC(=O)N1CCN(c2nc(OCC3CCCN3C)nc3c(F)c(-c4nc(N)cc(C)c4C(F)(F)F)c(Cl)cc23)C(C)C1 in this test?
Key: 0.0

###

viability, T/C values by entry
# System: 843782-103-R-J1-PDC complex spheroid viability
# assayText: Anticancer human tumor 843782-103-R-J1-PDC cell line growth inhibition [RAS];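 further: viability read after seven days of compound exposure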
# runParameters: second compound 0.000949 µM; first compound 10 µM; stronger effect = lower value
Write the number in % without appending the unit.

CC(C)NCC(C(=O)N1CCN(c2ncnc3c2C(C)CC3O)CC1)c1ccc(Cl)cc1 (configuration not stated) + CCn1c(-c2cc(N3CCN(C)CC3)cnc2C(C)OC)c2c3cc(ccc31)-c1csc(n1)CC(NC(=O)C1CC1C)C(=O)N1CCCC(N1)C(=O)OCC(C)(C)C2 | 6.49

Read the next record carefully.
Exercise: Record request: viability, T/C value, item CCC(CC)c1cc(NC2CCC(N)C2)n2nccc2n1 (configuration not stated) + CCn1c(-c2cc(N3CCN(C)CC3)cnc2C(C)OC)c2c3cc(ccc31)-c1csc(n1)CC(NC(=O)C1CC1C)C(=O)N1CCCC(N1)C(=O)OCC(C)(C)C2
Key: 0.37

###

# System: 843782-103-R-J1-PDC complex spheroid viability
# assayText: Anticancer human tumor 843782-103-R-J1-PDC cell line growth inhibition [RAS];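 further: viability read after seven days of compound exposure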
# runParameters: curve of first compound; second compound 0.0316 µM
Please assign 0 (no) whenever IC50 is at or above 10 nM, and 1 (yes) whenever it is below.

NC1c2ccccc2OC12CCN(c1cnc3c(N4CCCc5ncccc54)n[nH]c3n1)CC2 (centres undefined) + C#Cc1c(F)ccc2cc(O)cc(-c3ncc4c(N5CC6CCC(C5)N6)nc(OCC56CCCN5CC(F)C6)nc4c3F)c12 | 0 (no)

Now consider a different compound.
Exercise: Strictly below 10 nM: is that where IC50 of CC(C)n1nc(-c2ccc3oc(N)nc3c2)c2c(N)ncnc21 + C=CC(=O)N1CCN(c2nc(OCC3CCCN3C)nc3c(F)c(-c4nc(N)cc(C)c4C(F)(F)F)c(Cl)cc23)C(C)C1 sits?
Key: 0 (no)

###

# Test system: 843782-103-R-J1-PDC complex spheroid viability
# assayText: Anticancer human tumor 843782-103-R-J1-PDC cell line growth inhibition [RAS];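 further: viability read after seven days of compound exposure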
# runParameters: second compound 0.1 µM; first compound 0.3 µM; stronger effect = lower value
recordedEndpoint: viability, T/C

Exercise: Name the recorded viability, T/C for CC1(C)CCC(Nc2ncc(C(F)(F)F)c(-c3c[nH]c4c(P(C)(C)=O)c(C#N)ccc34)n2)CN1 (centres undefined) + C=CC(=O)N1CCN(c2nc(OCC3CCCN3C)nc3c(F)c(-c4nc(N)cc(C)c4C(F)(F)F)c(Cl)cc23)C(C)C1 .
Key: 18.9%

###

# Tested on: 843782-103-R-J1-PDC complex spheroid viability
# assayText: Anticancer human tumor 843782-103-R-J1-PDC cell line growth inhibition [RAS]; active = viability on the fitted dose curve at most 10% of control; inactive = the rest;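 further: viability read after seven days of compound exposure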
# runParameters: second compound 0.01 µM; first compound 0.1 µM
Could you please pick one outcome from this set? t (active), f (inactive)

Consider the following illustrative entries.
CCN1CCN(Cc2ccc(Nc3ncc(F)c(-c4cc(F)c5nc(C)n(C(C)C)c5c4)n3)nc2)CC1 + C=CC(=O)N1CCN(c2nc(OCC3CCCN3C)nc3c(F)c(-c4nc(N)cc(C)c4C(F)(F)F)c(Cl)cc23)C(C)C1 | f
CC(=O)OC12COC1CC(O)C1(C)C(=O)C(O)C3=C(C)C(OC(=O)C(O)C(NC(=O)OC(C)(C)C)c4ccccc4)CC(O)(C(OC(=O)c4ccccc4)C21)C3(C)C (centres undefined) + C=CC(=O)N1CCN(c2nc(OCC3CCCN3C)nc3c(F)c(-c4nc(N)cc(C)c4C(F)(F)F)c(Cl)cc23)C(C)C1 | t
NC1c2ccccc2OC12CCN(c1cnc3c(N4CCCc5ncccc54)n[nH]c3n1)CC2 (centres undefined) + C=CC(=O)N1CCN(c2nc(OCC3CCCN3C)nc3c(F)c(-c4nc(N)cc(C)c4C(F)(F)F)c(Cl)cc23)C(C)C1 | f

As a next step, examine the compound that follows.
Exercise: I'd appreciate the recorded outcome for C=CC(=O)Nc1cc(Nc2nccc(-c3cn(C)c4ccccc34)n2)c(OC)cc1N(C)CCN(C)C + C=CC(=O)N1CCN(c2nc(OCC3CCCN3C)nc3c(F)c(-c4nc(N)cc(C)c4C(F)(F)F)c(Cl)cc23)C(C)C1 from this test.
Key: f

###

viability, T/C reference
# Tested on: 843782-103-R-J1-PDC complex spheroid viability
# assayText: Anticancer human tumor 843782-103-R-J1-PDC cell line growth inhibition [RAS];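 further: viability read after seven days of compound exposure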
# runParameters: second compound 0.1 µM; first compound 3.16 µM; stronger effect = lower value
Unit % implied. Number only.

CC1(O)CCCC1n1c(=O)c(C(F)F)cc2cnc(NC3CCN(S(C)(=O)=O)CC3)nc21 (stereo not given) + C#Cc1c(F)ccc2cc(O)cc(-c3ncc4c(N5CC6CCC(C5)N6)nc(OCC56CCCN5CC(F)C6)nc4c3F)c12 | 23.6

Exercise: Given CC(Nc1ccc2c(c1)OCCn1cc(N3C(=O)OCC3C(F)F)nc1-2)C(N)=O (stereo not given) + C=CC(=O)N1CCN(c2nc(OCC3CCCN3C)nc3c(F)c(-c4nc(N)cc(C)c4C(F)(F)F)c(Cl)cc23)C(C)C1 , state its recorded viability, T/C.
Key: 15.4

Exercise: Now the compound C[C@@H](NC(=O)c1ncnc(N)c1Cl)c1ncc(C(=O)Nc2cc(C(F)(F)F)c(Cl)cn2)s1 + C=CC(=O)N1CCN(c2nc(OCC3CCCN3C)nc3c(F)c(-c4nc(N)cc(C)c4C(F)(F)F)c(Cl)cc23)C(C)C1
Key: 91.5

Exercise: Thanks! And CCC(CC)c1cc(NC2CCC(N)C2)n2nccc2n1 (stereo not given) + C=CC(=O)N1CCN(c2nc(OCC3CCCN3C)nc3c(F)c(-c4nc(N)cc(C)c4C(F)(F)F)c(Cl)cc23)C(C)C1 ?
Key: 1.17

###

# System: 843782-103-R-J1-PDC complex spheroid viability
# assayText: Anticancer human tumor 843782-103-R-J1-PDC cell line growth inhibition [RAS];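 further: viability read after seven days of compound exposure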
# runParameters: second compound 0.003 µM; first compound 0.1 µM; stronger effect = lower value
Rule: viability, T/C below 50% gives Fulfilled, anything at or above gives Not fulfilled.

Solved entries (count: 5):
CC(Nc1ccc2c(c1)OCCn1cc(N3C(=O)OCC3C(F)F)nc1-2)C(N)=O (configuration not stated) + CCn1c(-c2cc(N3CCN(C)CC3)cnc2C(C)OC)c2c3cc(ccc31)-c1csc(n1)CC(NC(=O)C1CC1C)C(=O)N1CCCC(N1)C(=O)OCC(C)(C)C2 | Fulfilled
C=CC(=O)N1CCN(c2nc(OCC3CCCN3C)nc3c(F)c(-c4nc(N)cc(C)c4C(F)(F)F)c(Cl)cc23)C(C)C1 (configuration not stated) + CCn1c(-c2cc(N3CCN(C)CC3)cnc2C(C)OC)c2c3cc(ccc31)-c1csc(n1)CC(NC(=O)C1CC1C)C(=O)N1CCCC(N1)C(=O)OCC(C)(C)C2 | Not fulfilled
CC(Nc1ccc2c(c1)OCCn1cc(N3C(=O)OCC3C(F)F)nc1-2)C(N)=O (configuration not stated) + CCn1c(-c2cccnc2C(C)OC)c2c3cc(ccc31)N1CCOC(CC(NC(=O)C(C(C)C)N(C)C(=O)C3(F)CCN(C(=O)C#CC(C)(C)N(C)C)CC3)C(=O)N3CCCC(N3)C(=O)OCC(C)(C)C2)C1 | Fulfilled
O=C(c1ccc(F)c(F)c1Nc1ccc(I)cc1F)N1CC(O)([C@@H]2CCCCN2)C1 + CCn1c(-c2cc(N3CCN(C)CC3)cnc2C(C)OC)c2c3cc(ccc31)-c1csc(n1)CC(NC(=O)C1CC1C)C(=O)N1CCCC(N1)C(=O)OCC(C)(C)C2 | Fulfilled
CCC(CC)c1cc(NC2CCC(N)C2)n2nccc2n1 (configuration not stated) + CCn1c(-c2cccnc2C(C)OC)c2c3cc(ccc31)N1CCOC(CC(NC(=O)C(C(C)C)N(C)C(=O)C3(F)CCN(C(=O)C#CC(C)(C)N(C)C)CC3)C(=O)N3CCCC(N3)C(=O)OCC(C)(C)C2)C1 | Not fulfilled

Now turn to the next molecule.
Exercise: Regarding O=C(c1ccc(F)c(F)c1Nc1ccc(I)cc1F)N1CC(O)([C@@H]2CCCCN2)C1 + CCn1c(-c2cccnc2C(C)OC)c2c3cc(ccc31)N1CCOC(CC(NC(=O)C(C(C)C)N(C)C(=O)C3(F)CCN(C(=O)C#CC(C)(C)N(C)C)CC3)C(=O)N3CCCC(N3)C(=O)OCC(C)(C)C2)C1 , kindly confirm whether its viability, T/C is beneath 50%.
Key: Fulfilled
